The values you see were collected from PubChem BioAssay.

- test system: Dickkopf-related protein 1 (Homo sapiens) (UniProt O94907)
- Sequence (O94907 whole entry, looked up): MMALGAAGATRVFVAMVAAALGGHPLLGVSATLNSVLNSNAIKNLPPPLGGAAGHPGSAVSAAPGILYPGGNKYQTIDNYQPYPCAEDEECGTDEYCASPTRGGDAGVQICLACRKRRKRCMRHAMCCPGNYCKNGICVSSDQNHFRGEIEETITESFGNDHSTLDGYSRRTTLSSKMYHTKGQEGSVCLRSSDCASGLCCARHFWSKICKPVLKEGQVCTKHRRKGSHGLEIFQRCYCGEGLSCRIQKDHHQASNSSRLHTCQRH
- test method notes: DKK1 binders on small-molecule microarrays, primary screen, biochemical, small-molecule microarray, 635 nm fluorescence scan (AID 1106);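 also: score merges emission near 667 nm with signal to noise over three replicate slides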
- details: DKK1 binding, higher = more signal
endpoint: composite z-score

compound: O=C1O[C@H](c2ccccc2)[C@H](c2ccccc2)N2[C@H]1[C@@H](C(=O)N1CCN(c3ncccn3)CC1)[C@]1(C(=O)Nc3ccccc31)[C@H]2c1ccc(O)cc1
test system: Dickkopf-related protein 1 (Homo sapiens) (UniProt O94907)
result number: 0.165
--
compound: COC(=O)C(CC#Cc1ccc2c(c1)[C@]1(C(=O)N2)[C@H](c2ccc(O)cc2)N2[C@H](c3ccccc3)[C@H](c3ccccc3)OC(=O)[C@H]2[C@@H]1C(=O)N1CCc2cc(OC)c(OC)cc2C1)C(=O)OC
test system: Dickkopf-related protein 1 (Homo sapiens) (UniProt O94907)
result number: 1.06
--
compound: CC(C)C[C@H]1NC(=O)[C@@]23C(=O)N[C@@H](Cc4ccccc4)C2[C@H](C)[C@@]2(C)O[C@H]2C3/C=C/C/C=C\CNC(=O)[C@@H]2CCCN2C1=O (some centres not stated)
test system: Dickkopf-related protein 1 (Homo sapiens) (UniProt O94907)
result number: 0.668
--
compound: CN(C)C(=O)[C@]1(Cc2ccccc2CN=[N+]=[N-])N=C(c2ccc(OCCCO)cc2)O[C@@H]1c1ccccc1N=[N+]=[N-]
test system: Dickkopf-related protein 1 (Homo sapiens) (UniProt O94907)
result number: -0.0994
--
compound: O=C1c2ccccc2[C@](Cc2ccccc2I)(C(=O)O)[C@H](c2ccc(CO)cc2)N1Cc1ccccc1
test system: Dickkopf-related protein 1 (Homo sapiens) (UniProt O94907)
result number: -0.69
--
compound: CC(C)(C)N1CC=CC23O[C@@H]4/C=C\CCCOC(=O)C4[C@H]2C(=O)N(CCCCCCO)[C@@H]3C1=O (some centres not stated)
test system: Dickkopf-related protein 1 (Homo sapiens) (UniProt O94907)
result number: -0.857
--
compound: COC(=O)c1c(CC[C@@H](CO)NC(=O)N[C@@H](Cc2ccccc2)Cn2cc(-c3cncn3C)nn2)oc(C(C)=O)c1C(=O)OC
test system: Dickkopf-related protein 1 (Homo sapiens) (UniProt O94907)
result number: -0.376
